B1: tRNA (parent)
chain: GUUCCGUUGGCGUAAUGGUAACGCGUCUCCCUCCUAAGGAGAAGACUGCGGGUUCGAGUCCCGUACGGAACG

# Variants of: B1
# assay: yeast fitness relative to wild type (ratio to wild type); higher = fitter; tRNA-Arg(CCU), competitive growth, 37 C, YPD
Variants at the floor of the assay were thinned out.
reported metric: yeast fitness
One number for each entry.

List reported yeast fitness for each of these variants:
1. GUUCCGCUGGCGUAAUGAUAAGGCGUCUCCCUCCUAAGGAGAAGACUGCGGGUUCGAGUCCCGUACGGAACG [U7C G18A C22G]
2. GUUCCGUUAGCGUAAUGGUAACGCGUCUCCCUCCUAAGGAGAAGACUGCGGGUUCGCGUCCCGUACGGAACG [G9A A57C]
3. GGUCCGUUGGCGUAAUGGUAACGCAUCUCCCUCCUAAGGAGAAGACUGCGGGAUCGAGUCCCAUACGGAACG [U2G G25A U53A G63A]
4. GUUCCGAUGGCGUAAUGGUAACGCGUCUCCCUCGUAAGGAGAAGACUGCGGGUUCGAGUCCCGUACGGAACG [U7A C34G]
5. GUUCCGUUGCCGUAAUGGUAACGCGUCUCCCUCCUAAGGAGAAGAUUGCGGGUUCGAGUCCCGUAUGGAACG [G10C C46U C66U]
6. GUUCCGUUGGCGUAAUCGUAACGCGUCUCCCUCCUAAGGAGAAGACUGCGGGUUCGGGUCCCGUACGGAACG [G17C A57G]

1: 0.586; 2: 0.591; 3: 0.563; 4: 0.543; 5: 0.561; 6: 0.68

Your task in this section: give yeast fitness for each listed record.
1. GUUCCGUUGGCCUAAUGGUAACGCGUCUCCCUCCUAAGGAGAAGCCUGCGGGUUCGAGUCCCGUACGGAACG [G12C A45C]
2. GUUCCGUUGGCGUAAUGGUAACGCGUCUCCCUCCUAAGGAGAAGACUGCCGGUUCGAGUCCCGUGCGGAACG [G50C A65G]
3. GUUCCGUUGCCGUAAUGGUAACGCGUCUGCCUCCUAAGGAGUAGACUGCGGGUUCGAGUCCCGUACGGAACG [G10C C29G A42U]
4. GUUCCGUUGGCGUCAUGGUACCGCGUCUCCCUCCUAAGGAGAAGACUGCGGGUUCGAGUCCCGUACGGAACG [A14C A21C]
5. GUUCCGUUGGCGUAAUGGUAACGCGUCUCCGUCCUAAGGAGAAGACUCCGGGUUCGAGUCCCGUACGGAACG [C31G G48C]
6. GCUCCGUUGGCGUGAUGGUAACGCGUCUCCCUCCUAAGGAGAAGACGGCGGGUUCGAGUCCCGUACGGAACG [U2C A14G U47G]

[0.75, 0.766, 0.554, 0.609, 0.811, 0.593]

Each variant below has a recorded value; state its yeast fitness.
1. GUUCCGUUGCCGUAAUGGUAACGUGUCUCCCUCCUAAGGAGAAGACUGCGGGUUCGAGUCCCGUACGGAACG [G10C C24U]
2. GUUCCGUUGGCGUGAUGGUAACGCGUCUCUCUCCUAAGGAGAAGAAUGCGGGUUCGAGUCCCGUACGGAACG [A14G C30U C46A]

[0.716, 0.763]

From: the RNAGym collection of RNA variant scans (doi:10.1126/science.aae0568)
